# Experimental target: Recombinant STAT6 protein (STAT6 (W123-T658)) (Homo sapiens, UniProt P42226)
# Construct: Recombinant STAT6 protein (STAT6 (W123-T658))
# Sequence (P42226 123-658): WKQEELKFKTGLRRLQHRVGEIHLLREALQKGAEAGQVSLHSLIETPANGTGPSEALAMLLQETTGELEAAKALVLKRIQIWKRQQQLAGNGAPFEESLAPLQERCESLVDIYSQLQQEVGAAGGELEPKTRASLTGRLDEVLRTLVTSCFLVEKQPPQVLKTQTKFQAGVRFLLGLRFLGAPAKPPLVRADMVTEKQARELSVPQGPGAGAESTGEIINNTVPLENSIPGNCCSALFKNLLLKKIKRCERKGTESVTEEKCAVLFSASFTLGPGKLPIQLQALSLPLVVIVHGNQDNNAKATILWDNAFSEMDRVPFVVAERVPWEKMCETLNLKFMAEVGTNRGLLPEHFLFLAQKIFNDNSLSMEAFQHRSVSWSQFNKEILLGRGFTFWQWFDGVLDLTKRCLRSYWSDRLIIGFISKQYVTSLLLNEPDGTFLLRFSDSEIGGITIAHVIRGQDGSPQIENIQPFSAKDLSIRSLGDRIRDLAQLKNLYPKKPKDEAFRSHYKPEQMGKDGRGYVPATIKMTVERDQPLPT
# Protocol notes: STAT6 Fluorescence Polarization (FP) Assay
# Type: binding
# Test parameters: STAT6 (W123-T658) 250 nM, probe 5-FAM-Ap[…]-NH2 2 nM, 45-minute incubation; read-out: STAT6 (FP assay IC50 class)
# Method: STAT6 Fluorescence Polarization (FP) Assay An FP assay was developed to determine IC50 values for test substances. […] Reaction components were mixed, and FP was measured after 45-minute incubation at room temperature using a Tecan Spark multimode plate reader. FP signal (mP) was plotted against the log concentration of the test substances and IC50 values were calculated by nonlinear regression analysis using GraphPad Prism software. […]
pIC50: −log10 of the molar value.
Measure name: pIC50

molecule=O=C(N[C@H]1C/C=C\C[C@@H]2[C@H](O)C[C@@H](C(=O)N3CC(C(=O)N4CCOCC4)C3)N2C1=O)c1cc2cc(C(F)(F)P(=O)(O)O)ccc2s1 measure_name=pIC50 reading="4.52 to 5.52"
molecule=N#C[C@H]1[C@H](c2ccccc2)CN(C(=O)[C@@H]2CC[C@@H]3CCCC[C@H](NC(=O)c4cc5cc(CP(=O)(O)O)ccc5s4)C(=O)N32)C12CC2 measure_name=pIC50 reading="≥ 6.52"
molecule="O=C(N[C@H]1CCC[C@H]2CC[C@@H](C(=O)N3CC(c4cnccc4N4C5COCC4C5)C3)N2C1=O)c1cc2cc(C(F)P(=O)(O)O)ccc2s1 (some centres unmarked)" measure_name=pIC50 reading="5.52 to 6.52"

The molecule listed as NC(=O)Cc1cc(-c2ccccc2)ccc1NC(=O)[C@@H]1CCC2CCC[C@H](NC(=O)c3cc4cc(C(F)(F)P(=O)(O)O)ccc4s3)C(=O)N21 (some centres unmarked) shows pIC50 equal to 4.52 to 5.52

The molecule listed as "O=C(/C=C/c1ccc(C(F)(F)P(=O)(O)O)cc1)N[C@H]1CCCC[C@H]2CC[C@@H](C(=O)N3Cc4cnn(-c5ccccc5)c4C3)N2C1=O" shows pIC50 equal to 5.52 to 6.52

* * *

The following compounds are shown together with reported IC50 values.
# Experimental target: Recombinant STAT6 protein (STAT6 (W123-T658)) (Homo sapiens, UniProt P42226)
# Construct: Recombinant STAT6 protein (STAT6 (W123-T658))
# Protocol notes: STAT6 Fluorescence Polarization (FP) Assay
# Type: binding
# Test parameters: STAT6 (W123-T658) 250 nM, probe 5-FAM-Ap[…]-NH2 2 nM, 45-minute incubation; read-out: STAT6 (FP assay IC50 class)

Example entries begin here.
compound="O=C(N[C@H]1CCC[C@H]2CC[C@@H](C(=O)N3CC(c4cnccc4C4CC4)C3)N2C1=O)c1cc2cc(CP(=O)(O)O)ccc2s1 [Compound 517]" reading="3 to 30 µM"
compound="Cn1c(C2CN(C(=O)[C@@H]3CC[C@@H]4CCCC[C@H](NC(=O)c5cc6cc(CP(=O)(O)O)ccc6s5)C(=O)N43)C2)nc2ccccc21 [Compound 662]" reading="3 to 30 µM"
compound="O=C(N[C@H]1CCC[C@H]2CC[C@@H](C(=O)N3CC(c4cc(F)ccn4)C3)N2C1=O)c1cc2cc(CP(=O)(O)O)ccc2s1 [Compound 541]" reading="3 to 30 µM"

The compound listed as C[C@@H]1C[C@H]2CC[C@@H](C(=O)N3CC(c4cnccc4N(C)C)C3)N2C(=O)[C@@H](NC(=O)c2cc3cc([C@H](F)P(=O)(O)O)ccc3s2)C1 [Compound 735] shows IC50 equal to 3 to 30 µM

The compound listed as COc1ccncc1C1CN(C(=O)[C@@H]2CC[C@@H]3C[C@H](C)C[C@H](NC(=O)c4cc5cc([C@H](F)P(=O)(O)O)ccc5s4)C(=O)N32)C1 [Compound 766] shows IC50 equal to 3 to 30 µM

The compound listed as C[C@H]1C[C@H]2CC[C@@H](C(=O)N3CC(c4cnccc4F)C3)N2C(=O)[C@@H](NC(=O)c2cc3cc(C(F)P(=O)(O)O)ccc3s2)C1 (some centres unmarked) [Compound 207] shows IC50 equal to 3 to 30 µM

The compound listed as Cc1ccnnc1C1CN(C(=O)[C@@H]2CC[C@@H]3CCC[C@H](NC(=O)c4cc5cc(C(F)(F)P(=O)(O)O)ccc5s4)C(=O)N32)C1 [Compound 818] shows IC50 equal to 3 to 30 µM

The compound listed as O=C(N[C@H]1CCC[C@H]2CC[C@@H](C(=O)N3CC(c4ccncc4)C3)N2C1=O)c1cc2cc(C(F)P(=O)(O)O)ccc2s1 (some centres unmarked) [Compound 611] shows IC50 equal to 3 to 30 µM

The compound listed as CC(c1ccc2ccc(C(=O)N[C@H]3CCCC[C@H]4CC[C@@H](C(=O)N5C[C@@H](c6ccccc6)CC56CC6)N4C3=O)cc2c1)P(=O)(O)O (single isomer, unassigned) [Compound 897] shows IC50 equal to 3 to 30 µM

The compound listed as N#C[C@@H]1[C@@H](c2ccccc2)CN(C(=O)[C@@H]2CC[C@@H]3CCCC[C@H](NC(=O)c4ccc5ccc(C(F)P(=O)(O)O)cc5c4)C(=O)N32)C12CC2 (single isomer, unassigned) [Compound 894] shows IC50 equal to ≤ 0.3 µM

The compound listed as O=C(N[C@H]1CCC[C@H]2CC[C@@H](C(=O)N3CC(c4cccnc4)C3)N2C1=O)c1cc2cc(CP(=O)(O)O)c(F)cc2[nH]1 [Compound 864] shows IC50 equal to 3 to 30 µM

* * *

# Experimental target: Recombinant STAT3 protein (STAT3 (G127-I722)) (Homo sapiens)
# Construct: Recombinant STAT3 protein (STAT3 (G127-I722))
# Sequence (P40763 127-722): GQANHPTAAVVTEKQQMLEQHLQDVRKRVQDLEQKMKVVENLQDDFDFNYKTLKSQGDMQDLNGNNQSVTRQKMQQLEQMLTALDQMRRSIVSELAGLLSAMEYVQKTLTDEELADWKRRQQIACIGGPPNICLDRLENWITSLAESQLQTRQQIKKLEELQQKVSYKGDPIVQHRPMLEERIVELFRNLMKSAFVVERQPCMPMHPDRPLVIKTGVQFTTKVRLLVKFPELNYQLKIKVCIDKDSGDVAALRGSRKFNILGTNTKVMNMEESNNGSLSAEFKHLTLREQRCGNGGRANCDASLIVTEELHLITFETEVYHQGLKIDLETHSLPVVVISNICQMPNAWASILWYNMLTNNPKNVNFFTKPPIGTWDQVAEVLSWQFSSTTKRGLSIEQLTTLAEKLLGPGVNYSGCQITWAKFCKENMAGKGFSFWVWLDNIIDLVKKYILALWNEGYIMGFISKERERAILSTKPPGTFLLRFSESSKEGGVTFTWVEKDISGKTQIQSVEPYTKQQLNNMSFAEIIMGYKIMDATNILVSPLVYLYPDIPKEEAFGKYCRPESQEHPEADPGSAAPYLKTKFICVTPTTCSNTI
# Protocol notes: STAT3 Fluorescence Polarization (FP) Assay
# Format: binding
# Test parameters: STAT3 (G127-I722) 25 nM, probe 5-FAM-GpYLPQTV-NH2 2 nM, 45-minute incubation; read-out: STAT3 (FP assay IC50 class)
Measure name: IC50

compound="COCC(=O)NC1(c2ccccn2)CN(C(=O)[C@@H]2CC[C@@H]3CCCC[C@H](NC(=O)c4cc5cc(C(F)P(=O)(O)O)ccc5s4)C(=O)N32)C1 (some centres unmarked)" reading="100 to 1000 nM"
compound=O=C(N[C@H]1CCC[C@H]2CC[C@@H](C(=O)N3CC(c4cccnc4)C3)N2C1=O)c1cc2cc(CP(=O)(O)O)ccc2[nH]1 reading="1000 to 10000 nM"
compound="COc1ccncc1C1CN(C(=O)[C@@H]2CC[C@@H]3CCCC[C@H](NC(=O)c4cc5cc(C(F)P(=O)(O)O)ccc5s4)C(=O)N32)C1 (some centres unmarked)" reading="< 100 nM"
compound="N#C[C@H]1[C@H](c2ccccc2)CN(C(=O)[C@@H]2CC[C@@H]3CCCC[C@H](NC(=O)c4cc5cc([C@@H](F)P(=O)(O)O)ccc5s4)C(=O)N32)C12CC2 (single isomer, unassigned)" reading="1000 to 10000 nM"
compound=O=C(N[C@H]1CCC[C@H]2CC[C@@H](C(=O)N3CC(c4cncnc4N4CCC4)C3)N2C1=O)c1cc2cc(CP(=O)(O)O)ccc2s1 reading="< 100 nM"
compound=COc1cncc(C2CN(C(=O)[C@@H]3CC[C@@H]4CCC[C@H](NC(=O)c5cc6cc(CP(=O)(O)O)ccc6s5)C(=O)N43)C2)c1C reading="1000 to 10000 nM"
compound="CN(C)c1ncncc1C1CN(C(=O)[C@@H]2CC[C@@H]3CCC[C@H](NC(=O)c4cc5cc([C@H](F)P(=O)(O)O)ccc5s4)C(=O)N32)C1 (single isomer, unassigned)" reading="< 100 nM"
compound=COCC1(c2ccccc2)CN(C(=O)[C@@H]2CC[C@@H]3CCC[C@H](NC(=O)c4cc5cc(C(F)(F)P(=O)(O)O)ccc5s4)C(=O)N32)C1 reading="< 100 nM"
compound="O=C(N[C@H]1CCC[C@H]2CC[C@@H](C(=O)N[C@@H]3CC[C@H](O)C3)N2C1=O)c1cc2cc(C(F)P(=O)(O)O)ccc2s1 (some centres unmarked)" reading="1000 to 10000 nM"
compound="O=C(N[C@H]1CCCC[C@H]2CC[C@@H](C(=O)N3CC(c4cc[nH]c(=O)c4)CC34CC4)N2C1=O)c1ccc2ccc(C(F)(F)P(=O)(O)O)cc2c1 (some centres unmarked)" reading="1000 to 10000 nM"

Now for the compound whose IC50 we want.
The compound listed as Cn1cc(C2CN(C(=O)[C@@H]3CC[C@@H]4CCC[C@H](NC(=O)c5cc6cc(C(F)P(=O)(O)O)ccc6s5)C(=O)N43)C2)c(C#N)n1 (some centres unmarked) shows IC50 equal to 100 to 1000 nM

Where these numbers come from: patent US20250215029A1
